Tested on: EBV lymphoblastoid cells (LCL) viability, plate reader
Assay: cytotoxicity in EBV lymphoblastoid cells, dose response, cytotoxicity control, cell-based, plate reader, cherry-picks, set 2 (AID 504882)
Inconclusive results are not listed. Calls of active or inactive are those of the source. The rule behind the calls is not given here.
// reported AC50 per item
Property name: AC50

> print(dat)
                                    compound       measured.result
 1  COc1cc(C(=O)Oc2ccccc2/C=N/NC(=O)c2ccc(C)c(Cl)c2)cc(OC)c1OC               12.7 µM
 2  CCCCC(=O)NC(c1ccc(OC)cc1)c1ccc2cccnc2c1O (configuration not stated)               17.7 µM
 3  N#Cc1ccc(-c2csc(NNC(=O)c3ccc(Br)cc3)n2)cc1               5.38 µM
 4  Cc1cc(C)nc(SCc2ccc(C(=O)N/N=C/c3cccc(O)c3O)cc2)n1               10.9 µM
 5  N#Cc1c(Oc2ccc3ccccc3c2)sc(C(=O)c2ccccc2)c1N                 20 µM
 6  CCN1CCN(Cc2ccc(NC(=O)c3ccc(C)c(/C=C/c4cnc(Nc5cc(N6CCNCC6)nc(C)n5)cn4)c3)cc2C(F)(F)F)CC1               9.23 µM
 7  CC(=O)NC(c1ccc(Cl)cc1Cl)c1ccc2cccnc2c1O (configuration not stated)               1.56 µM
 8  CCNc1ccc(Br)cc(C(=O)/C=C/c2c(Cl)cccc2Cl)c1=O               13.8 µM
 9          Cc1sc2ncnc(N/N=C/c3ccccc3O)c2c1C               3.59 µM
10    CCCc1cc(=O)n2[nH]cc(-c3ccc(Cl)cc3)c2n1               8.45 µM
11  CCN(CC)S(=O)(=O)c1cccc(NC(=O)Nc2cccc(C(F)(F)F)c2)c1                9.7 µM
12  C#Cc1cc(N2CCN(C(=O)c3ccoc3)CC2)n2nc(-c3cccc(Cl)c3)cc2n1               10.4 µM
13  Cc1ccc(C(=O)Nc2sc(Cc3ccc4c(c3)OCO4)c(C)c2C(N)=O)cc1               19.2 µM
14  O=C(NC(c1ccc(Cl)cc1)c1cc(Cl)c2cccnc2c1O)c1cccnc1 (configuration not stated)               4.72 µM
15  Cc1cc(S(=O)(=O)c2ccc(Cl)cc2)nc(S(=O)(=O)c2ccc(Cl)cc2)c1C#N              0.855 µM
16             Cn1c(/C=C/c2ccccc2)nc2ccccc21               13.9 µM
17        NC(=S)NN=Cc1nccc2c(C(F)(F)F)cccc12               1.15 µM
18  COc1ccc(-n2nc(C(=O)c3cccs3)cc(-c3nc4ccccc4[nH]3)c2=N)cc1                8.9 µM
19  Cc1onc(-c2ccccc2)c1C(=O)NC(=S)NNC(=O)c1ccc(O)cc1O  > 19.5 µM (inactive)
20             COc1cccc(/C=N/Nc2nccnc2Cl)c1O               3.86 µM
21  Cc1ccc2[nH]c3c(c2c1)CCCC3NC(=O)CCl (configuration not stated)               1.41 µM
22  CCNC(=S)NNC(=O)c1cc(-c2ccc(OCC)cc2)nc2ccccc12               7.85 µM

* * *

System: EBV lymphoblastoid cells (LCL) viability, plate reader
Assay: cytotoxicity in EBV lymphoblastoid cells, dose response, cytotoxicity control, cell-based, plate reader, cherry-picks, set 2 (AID 504882)
Inconclusive results are not listed.
Property name: AC50

> print(dat)
                                    compound  measured.result
 1             CC(=NNC(=S)Nc1ccccc1)c1ccccn1         0.068 µM
 2  Oc1c(C(Nc2nc3ccccc3s2)c2ccco2)ccc2cccnc12 (stereo unspecified)             2 µM
 3  O=C(NC(Nc1nc2ccc([N+](=O)[O-])cc2s1)(C(F)(F)F)C(F)(F)F)c1ccccc1         0.298 µM
 4             Cc1ccc(CSc2nc3ccncc3[nH]2)cc1          19.5 µM
 5     c1ccc(C(=NNc2nc3ccccc3s2)c2ccccn2)cc1          1.06 µM
 6  COc1ccc(C(=O)NC(=S)NNC(=O)c2ccc3ccccc3n2)cc1          3.69 µM
 7  NC(=S)NN=Cc1nccc2c(C(F)(F)C(F)(F)C(F)(F)F)cccc12         0.452 µM
 8  COc1ccccc1N(C(C)=O)C1=C(Cl)C(=O)c2ccccc2C1=O          2.59 µM
 9  COc1ccc(C(NC(C)=O)c2cc(Cl)c3cccnc3c2O)cc1 (stereo unspecified)          6.92 µM
10              CC(=NNc1nc2ccccc2s1)c1ncccn1          10.2 µM
11             C=CC(=O)OCCOCCOCCOCCOC(=O)C=C          16.9 µM

* * *

Test system: EBV lymphoblastoid cells (LCL) viability, plate reader
Experiment: cytotoxicity in EBV lymphoblastoid cells, dose response, cytotoxicity control, cell-based, plate reader, cherry-picks, set 2 (AID 504882)
Inconclusive results are not listed. Active and inactive are the calls of the source. The rule behind the calls is not given here.
// reported AC50 per item
Property name: AC50

> print(dat)
                                    compound  property.name       measured.result
 1         CC(=NNC(=S)Nc1cccc(Cl)c1)c1ccccn1           AC50              0.138 µM
 2                Oc1ccc(C=NNc2ccccn2)c(O)c1           AC50               16.2 µM
 3  Nc1ccn([C@@H]2O[C@H](CO)[C@@H](O)[C@@H]2O)c(=O)n1           AC50              0.748 µM
 4  CCOC(=O)c1c(C)[nH]c(C(=O)N/N=C\c2ccccc2O)c1C           AC50                6.7 µM
 5  Nc1ccn([C@@H]2O[C@H](CO)[C@@H](O)C2O)c(=O)n1 (stereo partly drawn)           AC50                1.1 µM
 6  NC(Cc1ccc(O)cc1)C(=O)NN=Cc1ccc(N(CCCl)CCCl)cc1 (stereo not drawn)           AC50              0.983 µM
 7  CCNc1ccc(Br)cc(C(=O)/C=C/c2ccccc2Cl)c1=O           AC50               15.3 µM
 8   Cc1ccc(C(=O)N/N=C/c2c(O)ccc3ccccc23)cn1           AC50                 17 µM
 9           COc1ccc(OCc2cccc(C(=O)NN)c2)cc1           AC50  > 19.5 µM (inactive)
10  COc1ccccc1[C@]1(C)ON(c2ccccc2C(F)(F)F)C1=O           AC50               16.7 µM
11  CCCN(CCC)S(=O)(=O)c1ccc(C(=O)Nc2nnc(-c3cc(OC)cc(OC)c3)o2)cc1           AC50  > 19.5 µM (inactive)
12  C/C(=N/NC(=O)c1ccc(C(C)(C)C)cc1)c1ccccn1           AC50               1.05 µM
13              S=C1SCN(Cc2ccco2)CN1Cc1ccco1           AC50               15.8 µM
14          COc1cccc(N=Nc2ccc(O)c3ncccc23)c1           AC50               2.18 µM
15  O=S(=O)(c1ccccc1)N1CCN(c2cc(-c3ccccc3)nc3ncnn23)CC1           AC50  > 19.5 µM (inactive)
16  Nc1ccc(C(=O)N/N=C\c2cc(N=Nc3cccc4ccccc34)ccc2O)cc1           AC50               10.7 µM
17          CN1C(=O)N(C)c2ccc(C=O)c3cccc1c23           AC50               5.99 µM
18       O=C(Nc1nc(-c2ccccn2)cs1)c1ccc(Br)s1           AC50               1.29 µM
19        CC(=NNC(=S)N1CC2CCC(CC2)C1)c1nccs1           AC50              0.362 µM
20  O=C(Oc1c(Cl)cc(Cl)c2cccnc12)c1cccc([N+](=O)[O-])c1           AC50               18.8 µM
21  O=S(=O)(c1ccc2c(c1)C(=NO)c1cc(S(=O)(=O)N3CCCCC3)ccc1-2)N1CCCCC1           AC50                1.2 µM
22  C=CCn1c(O)c(N=NC(=S)Nc2ccccc2F)c2ccccc21           AC50               10.2 µM
23  CCN(CC)S(=O)(=O)c1ccc(N/N=C/c2ccc(O)cc2O)nc1           AC50               3.31 µM
